src = patent US20220127247A1

# TARGET_SYSTEM: delF508-CFTR (Homo sapiens, UniProt P13569, DEL508-508)
# Construct: expressed in transfected cells
# Sequence (P13569 with tags, fused parts or gaps DEL508-508): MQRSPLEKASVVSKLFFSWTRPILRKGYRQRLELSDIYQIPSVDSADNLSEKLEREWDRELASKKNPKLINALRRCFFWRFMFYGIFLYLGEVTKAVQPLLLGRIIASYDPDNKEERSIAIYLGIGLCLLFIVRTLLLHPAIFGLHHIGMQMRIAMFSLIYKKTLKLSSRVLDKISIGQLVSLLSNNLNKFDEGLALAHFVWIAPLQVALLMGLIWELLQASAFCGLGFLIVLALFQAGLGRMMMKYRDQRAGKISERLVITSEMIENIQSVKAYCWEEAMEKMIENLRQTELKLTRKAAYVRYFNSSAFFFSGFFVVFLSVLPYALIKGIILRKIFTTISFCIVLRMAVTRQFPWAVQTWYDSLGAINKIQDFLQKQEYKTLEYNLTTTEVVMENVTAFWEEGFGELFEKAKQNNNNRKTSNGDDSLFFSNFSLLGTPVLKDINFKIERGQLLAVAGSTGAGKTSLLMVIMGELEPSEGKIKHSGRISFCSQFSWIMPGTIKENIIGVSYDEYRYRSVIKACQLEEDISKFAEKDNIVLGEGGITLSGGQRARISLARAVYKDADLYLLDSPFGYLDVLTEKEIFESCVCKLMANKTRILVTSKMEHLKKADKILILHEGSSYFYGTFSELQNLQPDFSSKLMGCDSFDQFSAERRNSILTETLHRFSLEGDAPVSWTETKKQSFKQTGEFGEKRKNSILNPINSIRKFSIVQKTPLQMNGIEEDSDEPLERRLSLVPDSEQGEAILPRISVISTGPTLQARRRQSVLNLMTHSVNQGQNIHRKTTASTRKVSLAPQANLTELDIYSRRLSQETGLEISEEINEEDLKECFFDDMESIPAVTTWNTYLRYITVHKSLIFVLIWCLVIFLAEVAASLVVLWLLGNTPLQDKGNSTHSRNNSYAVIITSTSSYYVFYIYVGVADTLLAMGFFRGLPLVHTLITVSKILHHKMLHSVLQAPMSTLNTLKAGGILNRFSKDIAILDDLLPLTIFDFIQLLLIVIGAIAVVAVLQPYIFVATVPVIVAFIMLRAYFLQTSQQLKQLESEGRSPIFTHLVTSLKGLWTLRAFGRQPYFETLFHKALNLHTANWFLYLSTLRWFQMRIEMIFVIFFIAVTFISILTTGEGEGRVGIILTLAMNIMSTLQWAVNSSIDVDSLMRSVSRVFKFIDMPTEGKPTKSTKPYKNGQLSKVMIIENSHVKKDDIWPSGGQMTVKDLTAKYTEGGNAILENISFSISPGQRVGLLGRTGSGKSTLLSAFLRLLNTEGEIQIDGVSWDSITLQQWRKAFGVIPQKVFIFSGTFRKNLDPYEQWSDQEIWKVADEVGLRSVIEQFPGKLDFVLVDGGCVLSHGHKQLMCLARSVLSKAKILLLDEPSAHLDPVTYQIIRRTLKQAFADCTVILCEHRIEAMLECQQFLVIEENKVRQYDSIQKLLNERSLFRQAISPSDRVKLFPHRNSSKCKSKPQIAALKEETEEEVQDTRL
# MEASUREMENT_PROTOCOL: delF508-CFTR functional activity in primary human bronchial epithelial cells (HBECs), Multi-Transepithelial Clamp Circuit (MTECC-24) assay
# Format: cell-based
# CONDITION_NOTES: test compound added 24 h before assay, with potentiator (S)-3-amino-6-methoxy-N-(3,3,3-trifluoro-2-hydroxy-2-methylpropyl)-5-(trifluoromethyl)picolinamide; relative to 2 μM 3-(6-(1-(2,2-difluorobenzo[d][1,3]dioxol-5-yl)cyclopropane-1-carboxamido)-3-methylpyridin-2-yl)benzoic acid + 0.5 μM N-(2,4-di-tert-butyl-5-hydroxyphenyl)-4-oxo-1,4-dihydroquinoline-3-carboxamide
READOUT_TYPE: MTECC24-CFHBEC Amax % (%)

I. Cc1ccc(F)cc1-c1nc(NS(=O)(=O)c2cccc(N(C)CCCCC(=O)O)n2)ccc1C(F)(F)F
II. CCCN(CCC(=O)O)c1cccc(S(=O)(=O)Nc2ccc(C(F)(F)F)c(-c3ccccc3C)n2)n1
Query :: Consider I and II . Which of these has its MTECC24-CFHBEC Amax % at a higher number? Provide the label of your selected option as the answer.
Result :: II
(II: 247%, I: 116%)

A. CCc1ccccc1-c1nc(NS(=O)(=O)c2cccc(N(CC)CCC(=O)O)n2)ccc1C(F)(F)F
B. CCc1ccc(F)cc1-c1nc(NS(=O)(=O)c2cccc(N(C)CCCC(=O)O)n2)ccc1C(F)(F)F
Query :: Could you check which of A and B has a smaller value for MTECC24-CFHBEC Amax %? Return value: the label identifying the chosen record.
Result :: A
(A: 118%, B: 235%)

---

# TARGET_SYSTEM: delF508-CFTR (Homo sapiens, UniProt P13569, DEL508-508)
# Construct: expressed in transfected cells
# MEASUREMENT_PROTOCOL: Measurement of delF508-CFTR-HRP surface expression in CFBE41o- cells
# Format: cell-based
# CONDITION_NOTES: HRP-tagged delF508-CFTR in CFBE41o- cells, 24 h with compound, luminescence, 10-point curve, top 10 μM
READOUT_TYPE: EC50 (nM)

[[record]]
compound = "CCc1ccccc1-c1nc(NS(=O)(=O)c2cccc(N(CC)CCC(=O)O)n2)ccc1C(F)(F)F"
readout_type = "EC50"
units_text = "nM"
assay_value = 1880

[[record]]
compound = "Cc1ccccc1-c1nc(NS(=O)(=O)c2cccc(NCC(C)(C)C(=O)O)n2)ccc1C(F)(F)F"
readout_type = "EC50"
units_text = "nM"
assay_value = 1850

[[record]]
compound = "Cc1c(F)cccc1-c1nc(NS(=O)(=O)c2cccc(N(C)CCC(=O)O)n2)ccc1C(F)(F)F"
readout_type = "EC50"
units_text = "nM"
assay_value = 2030

[[record]]
compound = "Cc1ccccc1-c1nc(NS(=O)(=O)c2cccc(N[C@@H]3CCC[C@H](C(=O)O)C3)n2)ccc1C(F)(F)F (racemic) [106a 106b (racemic mixture)]"
readout_type = "EC50"
units_text = "nM"
assay_value = 1950

[[record]]
compound = "Cc1ccccc1-c1nc(NS(=O)(=O)c2cccc(N3CCC[C@@H](CCC(=O)O)C3)n2)ccc1C(F)(F)F (single isomer, unassigned)"
readout_type = "EC50"
units_text = "nM"
assay_value = 1460

